experiment: Cytotoxicity against MDCK cells after 48 hrs by MTT assay; format: cell-based, Canis lupus familiaris; conditions: dog, read-out: CTD50
# CC50 at 48 h annotations
Lab book: enter the figure in µM, no units written.

Examples from the recorded data:
[[record]]
compound = "CC(=O)c1c(O)c(C)c(O)c2c1OC1=CC(=O)/C(=C(/C)Nc3ccc(F)cc3)C(=O)[C@]12C"
measurement = 350

[[record]]
compound = "CC[N+](C)(CC)CCN/C(C)=C1\\C(=O)C=C2Oc3c(C(C)=O)c(O)c(C)c(O)c3[C@@]2(C)C1=O"
measurement = 121

[[record]]
compound = "CC(=O)c1c(O)c(C)c(O)c2c1OC1=CC(=O)/C(=C(/C)Nc3cccc(F)c3)C(=O)[C@]12C"
measurement = 35.3


Entry `CC[N+](C)(CC)CCN/C(C)=C1\C(=O)C=C2Oc3c(C(C)=O)c(O)c(C)c(O)c3[C@]2(C)C1=O` : reported CC50 at 48 h = ?
34.2

If you can, please state the reported CC50 at 48 h value of `CC(=O)c1c(O)c(C)c(O)c2c1OC1=CC(=O)/C(=C(/C)Nc3cccc(Br)c3)C(=O)[C@@]12C` .
33.6

Given the entry CC(=O)C1=C(O)C=C2Oc3c(C(C)=O)c(O)c(C)c(O)c3[C@@]2(C)C1=O [(+)-USNIC ACID] , report its measured CC50 at 48 h.
305

Which CC50 at 48 h reading was recorded for the compound `CC(=O)c1c(O)c(C)c(O)c2c1OC1=CC(=O)/C(=C(/C)Nc3cccc(Br)c3)C(=O)[C@]12C` ?
97.8

Look up CC50 at 48 h: CC(=O)C1=C(O)C=C2Oc3c(C(C)=O)c(O)c(C)c(O)c3[C@]2(C)C1=O [(-)-USNIC ACID]
209

Entry under review: `CC(=O)c1c(O)c(C)c(O)c2c1OC1=Cc3c(c(C)nn3-c3ccccc3)[C@@H](O)[C@@]12C` . Reported CC50 at 48 h?
78.9

Consider the compound shown here: `CC(=O)c1c(O)c(C)c(O)c2c1OC1=CC(=O)/C(=C(/C)NCC(=O)O)C(=O)[C@]12C` What is its recorded CC50 at 48 h?
197

Which CC50 at 48 h is listed for `CC(=O)c1c(O)c(C)c(O)c2c1OC1=CC(=O)/C(=C(/C)Nc3ccc(Cl)cc3)C(=O)[C@]12C` ?
153

----------
tested on: Influenza A virus; assay: Antiviral activity against Influenza virus A/California/07/09 (H1N1) pdm09 infected in MDCK cells after 48 hrs followed by incubated in chicken erythrocytes for 1 hr by hemagglutinination based end-point dilution method; type: functional, Influenza A virus (A/California/07/2009(H1N1)); conditions: Influenza A virus, pdm09, MDCK; read-out: ED50 (the source's name)
TRUE if EC50 is below 10 µM. FALSE if not; exact matches included in FALSE.

Here's an entry: `CC(=O)c1c(O)c(C)c(O)c2c1OC1=CC(=O)/C(=C(/C)NCC(F)(F)C(F)F)C(=O)[C@]12C` . Is its EC50 below 10 µM?
FALSE

Criterion: EC50 strictly below 10 µM. Is it met by `CC[N+](C)(CC)CCN/C(C)=C1\C(=O)C=C2Oc3c(C(C)=O)c(O)c(C)c(O)c3[C@@]2(C)C1=O` ?
TRUE

Please let me know if `CC[N+](C)(CC)CCN/C(C)=C1\C(=O)C=C2Oc3c(C(C)=O)c(O)c(C)c(O)c3[C@]2(C)C1=O` shows EC50 below 10 µM.
FALSE

Please let me know if `CC(=O)c1c(O)c(C)c(O)c2c1OC1=CC(=O)/C(=C(/C)Nc3cccc(Br)c3)C(=O)[C@@]12C` shows EC50 below 10 µM.
FALSE

----------
system: Influenza A virus; test: Antiviral activity against Influenza virus A/California/07/09 (H1N1) pdm09 infected in MDCK cells after 48 hrs followed by incubated in chicken erythrocytes for 1 hr by hemagglutinination based end-point dilution method; format: functional, Influenza A virus (A/California/07/2009(H1N1)); conditions: Influenza A virus, pdm09, MDCK; read-out: ED50 (the source's name)
metric_name: log10 of EC50 (log10 of the value in µM)
# values: log10(EC50), units µM

Sample records with log10 of EC50:
[[record]]
molecule = "CC(=O)c1c(O)c(C)c(O)c2c1OC1=CC(=O)/C(=C(/C)NCC(F)(F)C(F)F)C(=O)[C@@]12C"
measurement = 0.20

[[record]]
molecule = "CC(N)C12CC3CC(CC(C3)C1)C2 (stereo not drawn)"
measurement = 1.76

[[record]]
molecule = "CC(=O)c1c(O)c(C)c(O)c2c1OC1=CC(=O)/C(=C(/C)Nc3ccc(F)cc3)C(=O)[C@@]12C"
measurement = 1.37

[[record]]
molecule = "CC(=O)C1=C(O)C=C2O[C@]34O[C@@]3(C(C)=O)C(=O)C(C)=C(O)[C@]4(O)[C@]2(C)C1=O"
measurement = 1.44

[[record]]
molecule = "CC(=O)C1=C(O)C=C2O[C@]34O[C@@]3(C(C)=O)C(=O)C(C)=C(O)[C@]4(O)[C@@]2(C)C1=O"
measurement = 0.71


Need log10 of EC50 of `CC(=O)c1c(O)c(C)c(O)c2c1OC1=CC(=O)/C(=C(/C)Nc3ccc(F)cc3)C(=O)[C@]12C` , thanks.
1.96

Reported log10 of EC50, molecule `CC(=O)c1c(O)c(C)c(O)c2c1OC1=CC(=O)/C(=C(/C)Nc3ccc(Cl)cc3)C(=O)[C@@]12C` : ____
1.40

Would you mind telling me what log10 of EC50 value was observed for `CC(=O)c1c(O)c(C)c(O)c2c1OC1=Cc3c(c(C)nn3-c3ccccc3)[C@@H](O)[C@]12C` ?
1.02

----------
experiment: Selectivity index, ratio of CTD50 for MDCK cells to ED50 for influenza virus A/California/07/09 (H1N1) pdm09; format: toxicity, cell-based; conditions: dog, read-out: Selectivity Index
metric_name: selectivity ratio
Please respond with just the number, no unit label.

Reference set (3 entries):
[[record]]
compound = "CC(=O)c1c(O)c(C)c(O)c2c1OC1=CC(=O)/C(=C(/C)NCCC(=O)O)C(=O)[C@@]12C"
measurement = 23.5

[[record]]
compound = "CC(=O)C1=C(O)C=C2Oc3c(C(C)=O)c(O)c(C)c(O)c3[C@]2(C)C1=O [(-)-USNIC ACID]"
measurement = 14.4

[[record]]
compound = "CC[N+](C)(CC)CCN/C(C)=C1\\C(=O)C=C2Oc3c(C(C)=O)c(O)c(C)c(O)c3[C@@]2(C)C1=O"
measurement = 21.9


Next, consider the following compound.
Using the record for CC(=O)C1=C(O)C=C2Oc3c(C(C)=O)c(O)c(C)c(O)c3[C@@]2(C)C1=O [(+)-USNIC ACID] , report its selectivity ratio.
5.9

----------
assay: Cytotoxicity against MDCK cells after 48 hrs by MTT assay; format: cell-based, Canis lupus familiaris; settings: dog, read-out: CTD50
metric_name: CC50 at 48 h (µM)
The response must be a number in µM with no trailing unit.

Previously resolved entries follow.
[[record]]
item_smiles = "CC(=O)c1c(O)c(C)c(O)c2c1OC1=CC(=O)/C(=C(/C)NCCC(=O)O)C(=O)[C@@]12C"
measurement = 162

[[record]]
item_smiles = "CC(=O)C1=C(O)C=C2O[C@]34O[C@@]3(C(C)=O)C(=O)C(C)=C(O)[C@]4(O)[C@]2(C)C1=O"
measurement = 221


We next turn to a different compound, shown below.
What does the data say about its CC50 at 48 h? Entry: `CC(=O)c1c(O)c(C)c(O)c2c1OC1=CC(=O)/C(=C(/C)Nc3ccc(Cl)cc3)C(=O)[C@@]12C`
172

----------
assay: Cytotoxicity against MDCK cells after 48 hrs by MTT assay; format: cell-based, Canis lupus familiaris; details: dog, read-out: CTD50
Parameter: CC50 at 48 h. Scope: all listed entries.
Response body: numeric value in µM, unit text excluded.

Illustrative cases are given below, each with its answer.
[[record]]
item_smiles = "CC(=O)c1c(O)c(C)c(O)c2c1OC1=CC(=O)/C(=C(/C)NCC(=O)O)C(=O)[C@@]12C"
measurement = 67.3

[[record]]
item_smiles = "CC(=O)c1c(O)c(C)c(O)c2c1OC1=Cc3c(c(C)nn3-c3ccccc3)C(=O)[C@]12C"
measurement = 522

[[record]]
item_smiles = "CC(=O)c1c(O)c(C)c(O)c2c1OC1=CC(=O)/C(=C(/C)NCC(F)(F)C(F)F)C(=O)[C@]12C"
measurement = 397

[[record]]
item_smiles = "CC(=O)c1c(O)c(C)c(O)c2c1OC1=CC(=O)/C(=C(/C)Nc3ccc(Br)cc3)C(=O)[C@@]12C"
measurement = 193


As a next step, examine the compound that follows.
Which CC50 at 48 h is reported for this compound? `CC(=O)c1c(O)c(C)c(O)c2c1OC1=CC(=O)/C(=C(/C)Nc3ccc(Br)cc3)C(=O)[C@]12C`
154
